Origin of measurements: PubChem BioAssay (NCI)

- Test system: SN12C renal
- test: NCI tumour cell line growth inhibition, 48 h; in the data active = GI50 below about 0.43 µM; inactive = the rest
The categories you may choose from are 1.0 (active), 0.0 (inactive)

CCC(=O)c1c(C(F)(F)F)n([O-])c2ccc(C)cc2[n+]1=O :: 0.0
COc1ccc(-n2cc(-c3cc(OC)c(OC)c(OC)c3)[nH]c2=O)cc1Cl :: 0.0
CCc1oc2ccccc2c1C(=O)c1cc(I)c(O)c(I)c1 :: 0.0
Cc1cc(O)c(C(C)(C)C)cc1Sc1cc(C(C)(C)C)c(O)cc1C :: 0.0
N#Cc1cccc(NC(=O)c2cc(-c3ccc(F)cc3F)ccc2O)c1 :: 0.0
CON(C)C(=O)N1N=C(c2cc(F)ccc2F)SC1(CCCN)c1ccccc1 (stereo not drawn) :: 1.0
COC(=O)c1c(C)[nH]c(/C=C2\N=C(c3ccc[nH]3)C=C2OC)c1C :: 1.0
C=C(C)C1CCC2(C(=O)O)CCC3(C)C(CCC4C5(C)CCC(OC(=O)NCc6ccccc6)C(C)(C)C5CCC43C)C12 (stereo not drawn) :: 0.0
O=C1NN(C2=NNC3(C(=O)N2)c2ccccc2-c2ccccc23)C(c2ccccc2)=N/C1=C/c1ccc(O)cc1 :: 0.0
O=C(O)[C@@H]1CCCCN1Cc1cc2cc3c(cc2c2cc(OCc4ccccc4)ccc12)OCO3 :: 0.0

Lab log entry: COC(=O)[C@H](Cc1c[nH]c2ccccc12)NC(=O)[C@@H](OC)[C@@H]1Cc2cc3cc(OC4CC(OC5CC(O)C(O)C(C)O5)C(O)C(C)O4)c(C)c(O)c3c(O)c2C(=O)[C@H]1OC1CC(OC2CC(OC3CC(C)(O)C(O)C(C)O3)C(O)C(C)O2)C(O)C(C)O1 (stereo partly drawn) — outcome as called in the assay?
1.0

Lab log entry: N.N.O=C([O-])P(=O)([O-])[O-].[Na+].[Pt+4] — outcome as called in the assay?
0.0

Lab log entry: C=C1CC[C@@H]2[C@](C)(COC(C)=O)[C@H](OC(C)=O)CC[C@@]2(C)[C@@H]1CC(Nc1ccc(S(=O)(=O)Nc2ncccn2)cc1)C1=CCOC1=O (stereo partly drawn) — outcome as called in the assay?
0.0

* * *

- System: MDA-MB-435
- test: NCI tumour cell line growth inhibition, 48 h
property label: TGI

CC1ON2CCCC2[C@H]1C(=O)N1C2CC3CCC2(CS1(=O)=O)C3(C)C (stereo partly specified) :: > 100 µM

Under MDA-MB-435, report TGI for O=C(O)[C@@H]1CSCN1C(=O)[C@@H]1CCC(=S)N1
> 100 µM

Under MDA-MB-435, report TGI for COc1cc(OC)c2c(=O)c(OC)c(-c3ccc4c(c3)OCO4)oc2c1
> 100 µM

Under MDA-MB-435, report TGI for CC(=O)OC1(C)C=CC(=O)C=C1
> 100 µM

Under MDA-MB-435, report TGI for COc1ccc2nc3cc(Cl)ccc3c(NCCN)c2c1
3.36 µM

Under MDA-MB-435, report TGI for CCn1c(SCC(=O)NNC(=S)Nc2ccc(C)cc2)nc2ccccc2c1=O
> 100 µM

Under MDA-MB-435, report TGI for Cc1cccc2c(N)c3cccc(C(=O)NCC[N+](C)(C)Cc4c([N+](=O)[O-])ncn4C)c3nc12
> 100 µM

Under MDA-MB-435, report TGI for Cc1ccc(C)c(COCCOCn2ccc(N)nc2=O)c1
> 100 µM

Under MDA-MB-435, report TGI for COc1cc2c(c(OC)c1OC)-c1c(cc3c(c1OC)OCO3)C1OC2C(C)C1C (stereo unspecified) (tested in a mixture with another compound)
> 100 µM

Under MDA-MB-435, report TGI for CC(C)CCCC(=O)CCCCCCC(=O)CCN(O)C(=O)C(N)CO (stereo unspecified)
83.6 µM

Under MDA-MB-435, report TGI for O=S1(=O)N(CCNc2nccc(-c3c(-c4cccc(O)c4)nc4sccn34)n2)CCN1Cc1ccccc1
> 50 µM

Under MDA-MB-435, report TGI for C/C=C(/C)C(=O)O[C@H]1C[C@@H]2[C@@H](O)c3occ(C)c3C[C@]2(C)[C@@H](C)C1
33 µM

Under MDA-MB-435, report TGI for COc1ccc(C2SCC(=O)N2NC(=O)Nc2c(C)nc3ccccn23)cc1 (stereo unspecified)
> 100 µM

Under MDA-MB-435, report TGI for Cc1nc2ccccc2n1C(=O)c1c(F)c(F)c(F)c(F)c1F
20 µM

Under MDA-MB-435, report TGI for O=C1OC(c2ccco2)=N/C1=C\c1cccc([N+](=O)[O-])c1
> 100 µM

Under MDA-MB-435, report TGI for C=C1CC[C@@H]2[C@](C)(COC(C)=O)[C@H](OC(C)=O)CC[C@@]2(C)[C@@H]1CC(Nc1ccc(S(=O)(=O)Nc2ncccn2)cc1)C1=CCOC1=O (stereo partly specified)
3.77 µM

Under MDA-MB-435, report TGI for COc1ccc(C2C3=C(Nc4ncnn42)c2ccccc2OC3c2ccccc2)cc1 (stereo unspecified)
23.7 µM

Under MDA-MB-435, report TGI for CNc1nc2n(CCO)c(-c3ccccc3)c(-c3ccccc3)nc-2c(=O)n1
> 50 µM

Under MDA-MB-435, report TGI for c1ccc2c(c1)nc1n2CNC1
> 100 µM

Under MDA-MB-435, report TGI for CNc1nc(N)c(N=O)c(Nc2ccc(Br)cc2)n1
> 100 µM

Under MDA-MB-435, report TGI for Nc1ncn(C2CC(O)C(CO)O2)c(=O)n1 (stereo unspecified)
> 98.3 µM

* * *

- Tested on: CAKI-1 renal
- test: NCI tumour cell line growth inhibition, 48 h; in the data active = GI50 below about 0.43 µM; inactive = the rest
The categories you may choose from are 1 (yes) = active, 0 (no) = inactive

COc1cc2c3c(n(CCCCOC(=O)C(Cl)(Cl)Cl)c(=O)c2cc1OC)-c1cc2c(cc1C3=O)OCO2 :: 0 (no)

Lab log entry: COc1ccc(-n2cc(-c3cc(OC)c(OC)c(OC)c3)[nH]c2=O)cc1Cl — outcome as called in the assay?
0 (no)

Lab log entry: COc1cc2c3c(n(C)c(=O)c2cc1OC)-c1cc2c(cc1/C3=C\CNCCCN)OCO2 — outcome as called in the assay?
0 (no)

Lab log entry: O=C(O)[C@@H]1CCCCN1Cc1cc2cc3c(cc2c2cc(OCc4ccccc4)ccc12)OCO3 — outcome as called in the assay?
0 (no)

Lab log entry: CCc1oc2ccccc2c1C(=O)c1cc(I)c(O)c(I)c1 — outcome as called in the assay?
0 (no)

Lab log entry: C=C(C)C1CCC2(C(=O)O)CCC3(C)C(CCC4C5(C)CCC(OC(=O)NCc6ccccc6)C(C)(C)C5CCC43C)C12 (stereo not drawn) — outcome as called in the assay?
0 (no)

Lab log entry: CCN(CC)CCCC(C)Nc1cnc(C(=O)Nc2cccc3ccc(OC)nc23)cn1 (stereo not drawn) — outcome as called in the assay?
0 (no)

Lab log entry: Cc1ccc(NC(=O)c2sc3nc(C)c(C(O)c4ccccc4)cc3c2N)cc1 (stereo not drawn) — outcome as called in the assay?
0 (no)

* * *

- System: CAKI-1 renal
- test: NCI tumour cell line growth inhibition, 48 h
property label: TGI

Sample records with TGI:
COc1cc2c(cc1OC)CCc1cc(OC)c(OC)cc1CC2 :: > 100 µM
COc1cccc(/C=C2\C(=O)N(C(=O)c3ccc(NC(C)=O)cc3)N=C2C)c1 :: > 100 µM

Query TGI for Cc1ccc2[nH]c(C(=O)NN3C(=O)C(C)SC34CCCC(C)C4)c(-c3ccccc3)c2c1 (stereo not drawn)
> 100 µM

Query TGI for CC1ON2CCCC2[C@H]1C(=O)N1C2CC3CCC2(CS1(=O)=O)C3(C)C (stereo partly drawn)
> 100 µM

Query TGI for COc1cc2c3c(n(C)c(=O)c2cc1OC)-c1cc2c(cc1/C3=C\CNCCCN)OCO2
16 µM

Query TGI for Cc1ccc(NC(=S)N/N=C(/c2ccccc2)c2ccccn2)cc1
9.48 µM

Query TGI for O=C1/C(=C/c2ccc(O)cc2)CSc2ccc(Cl)cc21
52 µM

Query TGI for O=C1O/C(=C(/Br)c2ccc(Cl)c(Cl)c2)c2ccccc21
> 10 µM

Query TGI for COc1cc2c(c(OC)c1)C1(CC(CC#N)C2)SCCS1 (stereo not drawn)
> 100 µM

Query TGI for CSc1nc2cc(S(=O)(=O)N3CCCCC3)ccc2s1
> 100 µM

Query TGI for CCOC(=O)C1(C(=O)OCC)C[C@H](C)[C@](C)(O)C1
> 100 µM

Query TGI for CNC(=O)N1CN(c2ccccc2)C2(CCN(CCCC3(c4ccc(F)cc4)OCCO3)CC2)C1=O
> 100 µM

Query TGI for C=C(CC[C@@H](C)[C@H]1CC[C@@]2(C)C3=C(CC[C@]12C)[C@@]1(C)CC[C@H](O)[C@@H](C)C1CC3)C(C)C (stereo partly drawn)
2.26 µM

Query TGI for O=C(/C=C\n1cnc(-c2cc(C(F)(F)F)cc(C(F)(F)F)c2)n1)NNc1cnccn1
12 µM

Query TGI for CN1C2CCC1CC(CCNC(c1ccccc1)c1ccccc1)C2 (stereo not drawn)
> 100 µM

Query TGI for C=C1CC[C@@H]2[C@](C)(COC(C)=O)[C@H](OC(C)=O)CC[C@@]2(C)[C@@H]1CC(Nc1ccc(S(=O)(=O)Nc2ncccn2)cc1)C1=CCOC1=O (stereo partly drawn)
4.04 µM

Query TGI for CC(=O)OC1(C)C=CC(=O)C=C1
> 100 µM

Query TGI for N#CCc1ccc(C(C#N)/C(CCCC(=O)Nc2cccc([N+](=O)[O-])c2)=N/NC(N)=S)cc1 (stereo not drawn)
> 100 µM
